Biological target: LK35.2-hPD-L1 cells / PE-labeled PD-1-Ig (Homo sapiens)
Construct: expressed in transfected cells; host or cells: LK35.2 mouse B cell line
Sequence (Q9NZQ7 19-290): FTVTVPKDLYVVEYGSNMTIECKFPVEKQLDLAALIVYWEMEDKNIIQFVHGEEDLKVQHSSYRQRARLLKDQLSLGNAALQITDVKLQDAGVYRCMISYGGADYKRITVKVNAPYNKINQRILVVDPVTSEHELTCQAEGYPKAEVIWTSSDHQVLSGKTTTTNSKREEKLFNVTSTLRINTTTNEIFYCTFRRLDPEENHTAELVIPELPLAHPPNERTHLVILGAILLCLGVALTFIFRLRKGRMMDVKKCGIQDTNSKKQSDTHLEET
Assay: LK35.2-hPD-L1 cell binding high-content screening assay
Assay type: cell-based
Details: cluster symbol; cell line of CBA not given (LK35.2-hPD-L1 or 293T-hPD-L1); read-out: CBA IC50 cluster
Positions of bridges follow the written chain, without caps; N, C: chain ends. Non-standard residues stand in square brackets, D forms with d. Residues, ends and D or L forms follow the SMILES beside them. Phe(4-Cl) = N[C@@H](Cc1ccc(Cl)cc1)C(=O)O; NMeF = CN[C@@H](Cc1ccccc1)C(=O)O; NMeNle = CCCC[C@H](NC)C(=O)O; Dap = NC[C@H](N)C(=O)O; Sar = CNCC(=O)O
measured-metric: IC50

>>> test_result("CCCC[C@H]1C(=O)N(C)CC(=O)N[C@@H](CC(=O)O)C(=O)N[C@@H](C(C)C)C(=O)N(C)[C@@H](Cc2ccccc2)C(=O)N[C@@H](Cc2ccc(O)cc2)C(=O)N(C)CC(=O)N[C@@H](Cc2c[nH]c3ccccc23)C(=O)N[C@@H](Cc2ccc(O)cc2)C(=O)N[C@@H](CN)C(=O)N[C@H](C(=O)NCC(N)=O)CSCC(=O)N[C@@H](Cc2ccccc2)C(=O)N(C)[C@@H](Cc2ccccc2)C(=O)N1C [Example 3161] ({CH2CO}-F[NMeF][NMeNle][Sar]DV[NMeF]Y[Sar]WY[Dap]CG-NH2; thioether N-13)")
"4.78 to 72.9 nM"
>>> test_result("CCCC[C@H]1C(=O)N(C)CC(=O)N[C@@H](CC(=O)O)C(=O)N[C@@H](C(C)C)C(=O)N[C@@H](Cc2ccc(Cl)cc2)C(=O)N[C@@H](Cc2ccc(O)cc2)C(=O)N(C)CC(=O)N[C@@H](Cc2c[nH]c3ccccc23)C(=O)N[C@@H](Cc2ccc(O)cc2)C(=O)N[C@@H](CC(C)C)C(=O)N[C@H](C(=O)NCC(N)=O)CSCC(=O)N[C@@H](Cc2ccccc2)C(=O)N(C)[C@@H](Cc2ccccc2)C(=O)N1C [Example 3145] ({CH2CO}-F[NMeF][NMeNle][Sar]DV[Phe(4-Cl)]Y[Sar]WYLCG-NH2; thioether N-13)")
"> 74.3 nM"

###

Molecular target: LK35.2-hPD-L1 cells / PE-labeled PD-1-Ig (Homo sapiens)
Construct: expressed in transfected cells; host or cells: LK35.2 mouse B cell line
Assay: LK35.2-hPD-L1 cell binding high-content screening assay
Assay type: cell-based
Conditions: cell binding assay, cell line not given; cluster symbol; read-out: CBA IC50 cluster
Positions of bridges follow the written chain, without caps; N, C: chain ends. Non-standard residues stand in square brackets, D forms with d. Residues, ends and D or L forms follow the SMILES beside them. ξ: configuration not given here. ξPhe(βξ-Me) = CC(c1ccccc1)C(N)C(=O)O; NMeF = CN[C@@H](Cc1ccccc1)C(=O)O; NMeNle = CCCC[C@H](NC)C(=O)O; NMeA = CN[C@@H](C)C(=O)O; dAze = O=C(O)[C@H]1CCN1; ξC = NC(CS)C(=O)O; Sar = CNCC(=O)O
measured-metric: IC50

>>> test_result("CCCC[C@H]1C(=O)N(C)CC(=O)N[C@@H](CC(=O)O)C(=O)N[C@@H](C(C)C)C(=O)N(C)[C@@H](Cc2ccccc2)C(=O)N[C@@H](Cc2ccc(O)cc2)C(=O)N(C)CC(=O)N[C@@H](Cc2c[nH]c3ccccc23)C(=O)N[C@@H](Cc2ccc(O)cc2)C(=O)N[C@@H](CC(C)C)C(=O)N[C@H](C(=O)NCC(N)=O)CSCC(=O)N[C@@H](Cc2ccccc2)C(=O)N(C)[C@@H](Cc2cccc3ccccc23)C(=O)N1C (single isomer, unassigned) [Example 3585-B]")
"0.00478 to 0.0729 µM"
>>> test_result("CCCC[C@H]1C(=O)N(C)CC(=O)N[C@@H](CC(=O)O)C(=O)N[C@@H](C(C)C)C(=O)N(C)[C@@H](Cc2ccccc2)C(=O)N[C@@H](Cc2ccc(O)cc2)C(=O)N2CC[C@@H]2C(=O)N[C@@H](Cc2c[nH]c3ccccc23)C(=O)N[C@@H](Cc2ccc(O)cc2)C(=O)N[C@@H](CC(C)C)C(=O)N[C@H](C(=O)NCC(N)=O)CSCC(=O)N[C@@H](Cc2ccccc2)C(=O)N(C)[C@@H](Cc2ccccc2)C(=O)N1C [Example 3577] ({CH2CO}-F[NMeF][NMeNle][Sar]DV[NMeF]Y[dAze]WYLCG-NH2; thioether N-13)")
"0.000158 to 0.00471 µM"
>>> test_result("CCCC[C@H]1C(=O)N(C)CC(=O)N[C@@H](CC(=O)O)C(=O)N[C@@H](C(C)C)C(=O)N(C)[C@@H](Cc2ccccc2)C(=O)N[C@@H](Cc2ccc(O)cc2)C(=O)N(C)CC(=O)N[C@@H](Cc2c[nH]c3ccccc23)C(=O)N[C@@H](Cc2ccc(O)cc2)C(=O)N[C@@H](CC(C)C)C(=O)N[C@H](C(=O)NCC(N)=O)CSCC(=O)NC(C(C)c2ccccc2)C(=O)N(C)[C@@H](Cc2ccccc2)C(=O)N1C (stereo partly drawn) [Example 3516] ({CH2CO}-[ξPhe(βξ-Me)][NMeF][NMeNle][Sar]DV[NMeF]Y[Sar]WYLCG-NH2; thioether N-13)")
"> 0.0743 µM"
>>> test_result("CCCC[C@H]1C(=O)N(C)[C@@H](CCCC)C(=O)N[C@@H](CCCNC(=N)N)C(=O)NC(C(=O)NCC(N)=O)CSCC(=O)N[C@@H](Cc2ccc(O)cc2)C(=O)N(C)[C@@H](C)C(=O)N[C@@H](CC(N)=O)C(=O)N2CCC[C@H]2C(=O)N[C@@H](Cc2c[nH]cn2)C(=O)NCC(=O)N[C@@H](CC(C)C)C(=O)N2CCC[C@H]2C(=O)N[C@@H](Cc2c[nH]c3ccccc23)C(=O)N[C@@H](CO)C(=O)N[C@@H](Cc2c[nH]c3ccccc23)C(=O)N1C (stereo partly shown) [Example 10516] ({CH2CO}-Y[NMeA]NPHGLPWSW[NMeNle][NMeNle]R[ξC]G-NH2; thioether N-15)")
"> 0.0743 µM"

###

Molecular target: Human PD-L1/PD-1 (Homo sapiens, UniProt Q9NZQ7)
Construct: made in house; host or cells: HEK293T
Sequence (Q9NZQ7 with tags, fused parts or gaps): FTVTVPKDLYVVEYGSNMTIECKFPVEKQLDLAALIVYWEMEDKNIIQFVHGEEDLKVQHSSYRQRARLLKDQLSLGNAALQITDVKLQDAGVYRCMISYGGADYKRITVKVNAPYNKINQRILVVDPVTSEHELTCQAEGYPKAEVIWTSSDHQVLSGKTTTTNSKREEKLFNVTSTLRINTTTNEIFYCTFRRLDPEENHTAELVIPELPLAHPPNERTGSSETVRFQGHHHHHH
Assay: HTRF PD-1-Ig/PD-L1-His binding assay (human PD-L1)
Conditions: cluster symbol; read-out: HTRF IC50 cluster
Positions of bridges follow the written chain, without caps; N, C: chain ends. Non-standard residues stand in square brackets, D forms with d. Residues, ends and D or L forms follow the SMILES beside them. ξ: configuration not given here. Hyp = O=C(O)[C@@H]1C[C@@H](O)CN1; NMeNle = CCCC[C@H](NC)C(=O)O; NMeM = CN[C@@H](CCSC)C(=O)O; NMeA = CN[C@@H](C)C(=O)O; ξC = NC(CS)C(=O)O; Sar = CNCC(=O)O
The entries below come with measured IC50 values attached.
measured-metric: IC50

>>> test_result("CCCC[C@H]1C(=O)N[C@@H](CCCNC(=N)N)C(=O)NC(C(=O)NCC(N)=O)CSCC(=O)N[C@@H](Cc2ccc(O)cc2)C(=O)N(C)[C@@H](C)C(=O)N[C@@H](CC(N)=O)C(=O)N2CCC[C@H]2C(=O)N[C@@H](CO)C(=O)N[C@@H](CC(C)C)C(=O)N2C[C@H](O)C[C@H]2C(=O)N[C@@H](Cc2c[nH]c3ccccc23)C(=O)N[C@@H](CO)C(=O)N[C@@H](Cc2c[nH]c3ccccc23)C(=O)N(C)[C@@H](CCSC)C(=O)N1C (stereo partly shown) [Example 9100] ({CH2CO}-Y[NMeA]NPSL[Hyp]WSW[NMeM][NMeNle]R[ξC]G-NH2; thioether N-14)")
"0.385 to 6.74 nM"
>>> test_result("CCCC[C@H]1C(=O)N(C)[C@@H](CCCC)C(=O)N[C@@H](CC(C)C)C(=O)N[C@H](C(=O)NCC(N)=O)CSCC(=O)N[C@@H](Cc2ccc(O)cc2)C(=O)N(C)[C@@H](C)C(=O)N[C@@H](CC(N)=O)C(=O)N(C)CC(=O)N[C@@H](Cc2c[nH]cn2)C(=O)N[C@@H](CCC(N)=O)C(=O)N2C[C@H](O)C[C@H]2C(=O)N[C@@H](Cc2c[nH]c3ccccc23)C(=O)N[C@@H](CO)C(=O)N[C@@H](Cc2c[nH]c3ccccc23)C(=O)N1C [Example 5084] ({CH2CO}-Y[NMeA]N[Sar]HQ[Hyp]WSW[NMeNle][NMeNle]LCG-NH2; thioether N-14)")
"6.76 to 30.3 nM"
>>> test_result("CCCC[C@H]1C(=O)N(C)[C@@H](CCCC)C(=O)N[C@@H](CCCNC(=N)N)C(=O)N[C@H](C(=O)NCC(N)=O)CSCC(=O)N[C@@H](Cc2ccccc2)C(=O)N(C)[C@@H](C)C(=O)N[C@H](C)C(=O)N2CCC[C@H]2C(=O)N[C@@H](Cc2cnc[nH]2)C(=O)N[C@@H](CC(C)C)C(=O)N(C)CC(=O)N[C@@H](Cc2c[nH]c3ccccc23)C(=O)N[C@@H](CO)C(=O)N[C@@H](Cc2c[nH]c3ccccc23)C(=O)N1C [Example 1081] ({CH2CO}-F[NMeA][dA]PHL[Sar]WSW[NMeNle][NMeNle]RCG-NH2; thioether N-14)")
"> 30.5 nM"
>>> test_result("CCCC[C@H]1C(=O)N(C)[C@@H](CCCC)C(=O)N[C@@H](CCCNC(=N)N)C(=O)N[C@H](C(=O)NCC(N)=O)CSCC(=O)N[C@@H](Cc2ccc(OC)cc2)C(=O)N(C)[C@@H](C)C(=O)N[C@@H](CC(N)=O)C(=O)N2CCC[C@H]2C(=O)N[C@@H](Cc2cnc[nH]2)C(=O)N[C@@H](CC(C)C)C(=O)N2C[C@H](O)C[C@H]2C(=O)N[C@@H](Cc2c[nH]c3ccccc23)C(=O)N[C@@H](CO)C(=O)N[C@@H](Cc2c[nH]c3ccccc23)C(=O)N1C [Example 7060]")
"0.385 to 6.74 nM"
